Test system: M19-MEL melanoma
Method Description: NCI tumour cell line growth inhibition, 48 h
TGI for assorted compounds

Recorded results for 3 compounds are shown here.
>  <Compound>
CC(C)C(=O)NS(=O)(=O)c1ccccc1

>  <TGI>
> 100 µM

$$$$
>  <Compound>
CC(=O)O[C@H]1CCC2[C@@H]3CCC4Nc5[nH]ncc5C[C@]4(C)C3CC[C@@]21C (stereo partly specified)

>  <TGI>
> 100 µM

$$$$
>  <Compound>
O=C(O)CC(NC(=O)CP(=O)(O)O)C(=O)O (stereo unspecified)

>  <TGI>
> 10000 µM

$$$$

Lab note: need TGI with M19-MEL melanoma for entry `CN1C(=O)CSC1=S` , please look it up.
> 100 µM

Lab note: need TGI with M19-MEL melanoma for entry O=C1OCC2C1C1c3ccccc3C(O)c3ccccc3C21 (stereo unspecified) , please look it up.
> 100 µM

Lab note: need TGI with M19-MEL melanoma for entry CCCN1CN(C(C(=O)N[C@@H]2C(=O)N3C2SC(C)(C)C3C(=O)O)c2ccc(O)cc2)CSC1=S (stereo partly specified) , please look it up.
> 100 µM
